test system: myocardial cells; experiment: Beating frequency of myocardial cells in embryonic cardiac explants on collagen gel; assay type: cell-based, mouse; conditions: 300 ng peptide or 100 ng TB4; normalized to PBS and TB4 controls (TB4 = 100.00)
Metric: frequency of myocardial beating

Sample answers from the record:
- Substance: "LKKTET [#8]"
  Metric: "frequency of myocardial beating"
  Val: "87.02+/−16.17 beats/75 sec"
- Substance: "#2: acetylated N-terminal variable domain with addition of Met6 (Ac-SDKPDM-OH; UniProt P62328 2-7, looked up, fragment)"
  Metric: "frequency of myocardial beating"
  Val: "10.65+/−1.15 beats/75 sec"
- Substance: "#5: de-acetylated form of the N-terminal variable domain with Met6 (of #2) (SDKPDM; Thymosin beta-4; UniProt P62328 2-7, looked up, fragment)"
  Metric: "frequency of myocardial beating"
  Val: "66.39+/−3.46 beats/75 sec"

Jot down frequency of myocardial beating (myocardial cells) of Ac-SDKPDMox [#3] . 17.21+/−1.00 beats/75 sec
